Observed IC50 for NS3-NS4 (Hepatitis C virus genotype 1a), reported per entry below.

CC(C)(C)OC(=O)N[C@H]1CCCCCCC[C@@H]2C[C@@]2(C(=O)NS(=O)(=O)Cc2cc(F)ccc2F)NC(=O)[C@@H]2C[C@@H](OC(=O)N3Cc4cccc(F)c4C3)CN2C1=O
< 100 nM

Data request, read-out IC50, for `COc1cccc(CS(=O)(=O)NC(=O)[C@@]23C[C@H]2/C=C\CCCCC[C@H](NC(=O)OC(C)(C)C)C(=O)N2C[C@H](OC(=O)N4Cc5cccc(F)c5C4)C[C@H]2C(=O)N3)c1`
< 100 nM

Data request, read-out IC50, for `Cc1ccc(CS(=O)(=O)NC(=O)[C@@]23C[C@H]2CCCCCCC[C@H](NC(=O)OC(C)(C)C)C(=O)N2C[C@H](OC(=O)N4Cc5cccc(F)c5C4)C[C@H]2C(=O)N3)c(C)c1`
< 100 nM

Data request, read-out IC50, for `CC(C)(C)OC(=O)N[C@H]1CCCCC[C@@H]2C[C@@H]2[C@@H]2C[C@@]2(C(=O)NS(=O)(=O)C2(C)CC2)NC(=O)[C@@H]2C[C@@H](OC(=O)N3Cc4cccc(F)c4C3)CN2C1=O`
< 100 nM

Data request, read-out IC50, for `CC(C)(C)OC(=O)N[C@H]1CCCCCCC[C@@H]2C[C@@]2(C(=O)NS(=O)(=O)c2cc(Cl)c(Cl)s2)NC(=O)[C@@H]2C[C@@H](OC(=O)N3Cc4cccc(F)c4C3)CN2C1=O`
< 100 nM
